Hey, just so you know, these numbers are from paper PMC11882969.

We begin with a simple list: items and their reported concentration at 30 min.
experiment: Pharmacokinetics: plasma, brain, CSF; conditions: male, CD-1, mouse, brain, intraperitoneal, 0.2 mg/kg
measurement.label: concentration at 30 min (ng/g)

                                   compound  result_value
0  COC(=O)[C@@](C)(NC(=O)c1cc(C)n(-c2cccc(C(F)(F)F)c2)n1)c1cccs1 [‘1350]          29.5
1  Cc1cc(C(=O)NC(C)(c2ccco2)c2ccco2)nn1-c1cccc(C(F)(F)F)c1 [‘4936]          25.2

---

biological target: hCB1 (Homo sapiens, UniProt P21554); test: bioSensAll ebBRET signaling profiling, hCB1; assay type: cell-based; design: host or cells: HEK293SL cells, transient PEI transfection; conditions: Barr2+GRK2 biosensor; Log [Compound] (M) -13.3979
Sequence (P21554 whole entry): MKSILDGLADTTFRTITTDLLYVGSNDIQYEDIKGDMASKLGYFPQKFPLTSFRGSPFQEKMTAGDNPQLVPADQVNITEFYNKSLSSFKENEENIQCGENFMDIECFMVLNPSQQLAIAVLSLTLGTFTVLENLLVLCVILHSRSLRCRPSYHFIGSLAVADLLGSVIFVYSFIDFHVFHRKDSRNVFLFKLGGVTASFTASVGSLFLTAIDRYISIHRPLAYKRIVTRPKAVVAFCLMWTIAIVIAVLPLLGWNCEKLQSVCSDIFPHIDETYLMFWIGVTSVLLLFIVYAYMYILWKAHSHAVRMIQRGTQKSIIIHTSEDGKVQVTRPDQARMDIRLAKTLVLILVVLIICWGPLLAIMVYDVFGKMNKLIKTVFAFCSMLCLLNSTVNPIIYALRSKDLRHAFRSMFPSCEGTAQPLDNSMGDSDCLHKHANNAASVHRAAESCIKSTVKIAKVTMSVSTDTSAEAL
measurement.label: Barr2+GRK2 hCB1 response

>>> df
                                   compound  result_value
0  Brc1cc2c(cc1Cc1noc(-c3cnn(CC4CC4)c3)n1)OCO2      -11.8221
1  Cc1nn(Cc2ccc(Cl)cc2)c(C)c1C(=O)OCC1CSc2ccccc2O1 (stereo not drawn)        10.832
2  Cn1nc(-c2nnc(C(C)(C)Oc3ccc(Cl)cc3)o2)c2ccccc2c1=O      -10.8649
3  Cn1nc(-c2nnc(C(C)(C)Oc3ccc(C(F)(F)F)cc3)o2)c2ccccc2c1=O       30.2955
4  Cc1c(C(=O)OCC2CSc3ccccc3O2)cnn1Cc1ccccc1 (stereo not drawn)        -3.845
5  Cc1nc(CC2CC2)oc1-c1nc(Cc2cc3c(cc2Br)OCO3)no1         -2.25

---

biological target: CB1 (rCB1) (Rattus norvegicus); test: Single-point radioligand displacement screen; type: binding; settings: 10 µM, 1 µM or 300 nM by cell colour (not visible)
Sequence (P20272 whole entry): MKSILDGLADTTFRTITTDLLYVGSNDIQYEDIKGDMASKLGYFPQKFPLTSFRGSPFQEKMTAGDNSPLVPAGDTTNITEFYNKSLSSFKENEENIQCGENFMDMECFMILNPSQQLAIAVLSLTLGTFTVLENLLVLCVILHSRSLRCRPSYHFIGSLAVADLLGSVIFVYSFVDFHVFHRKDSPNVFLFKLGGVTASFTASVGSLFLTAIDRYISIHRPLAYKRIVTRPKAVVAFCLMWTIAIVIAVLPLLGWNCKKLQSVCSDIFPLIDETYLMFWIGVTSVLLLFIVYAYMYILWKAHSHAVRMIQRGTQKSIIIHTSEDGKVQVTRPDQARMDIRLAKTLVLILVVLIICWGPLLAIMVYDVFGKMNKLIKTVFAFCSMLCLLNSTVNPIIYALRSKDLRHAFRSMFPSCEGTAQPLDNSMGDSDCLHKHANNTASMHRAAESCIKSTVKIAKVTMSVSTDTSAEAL
Listing: % 1H-CP-55,940 displacement (mean) from single point screen of selected molecules
measurement.label: % 1H-CP-55,940 displacement (mean) from single point screen

>>> print(df.to_string())
                                    molecule  result_value
 0  Cc1cc(C(=O)NC(CCO)Cc2ccccc2)nn1-c1ccc(F)cc1 (stereo not drawn)        -0.53%
 1  COC(=O)[C@H]1Cc2ccccc2CN1C(=O)c1cc(C)n(-c2cccc(F)c2)n1        -1.48%
 2  CCOC(=O)c1nc(-c2nc(Cc3cc4c(cc3Br)OCO4)no2)cs1         3.83%
 3  O=C1Cc2cc(-c3csc(Cc4ccc(F)cc4)n3)cc3c2N1CCC3        53.57%
 4  Cc1c(C(=O)NCC2CSc3ccccc3O2)cnn1-c1ccc(C(F)(F)F)cc1 (stereo not drawn)        46.11%
 5  Cn1nc(-c2nnc(C(C)(C)Oc3ccc(Cl)cc3)o2)c2ccccc2c1=O        80.28%
 6  O=C(OCC1CSc2ccccc2O1)c1ccc(Oc2cccnc2)cc1 (stereo not drawn)        26.16%
 7  Cc1cc(C(=O)NC(c2cccnc2)C2CC2)nn1-c1cccc(C#N)c1 (stereo not drawn)        33.29%
 8  O=C(c1ccccc1CS(=O)(=O)c1ccccc1)N1CCC(c2cccc(F)c2)C1 (stereo not drawn)        33.74%
 9  CC(C)n1nc(-c2nnc(C(C)(C)Oc3ccc(Cl)cc3)o2)c2ccccc2c1=O        41.24%
10  Cc1nc(CC2CC2)oc1-c1nc(Cc2ccc3c(c2)OCCCO3)no1         6.40%
11  CC(C)c1ncc(Cl)c(C(=O)N2CC(Cc3ccccc3Cl)C2)n1        36.74%
12  O=C(OCC1CSc2ccccc2O1)c1csc(Cc2ccccc2)n1 (stereo not drawn)         2.04%
13  CC(Oc1ccccc1)c1noc(-c2ccc(=O)n(-c3ccc(F)cc3)n2)n1 (stereo not drawn)        18.38%
14  COc1ccc(Cl)c(-c2cc(C(=O)N3CCOC[C@@H]3CC(C)C)on2)c1        33.55%
15  COC(=O)[C@H](C)NC(=O)c1cc(C)n(-c2cccc(F)c2)n1        -7.46%
16    CN(CCOc1ccc(Br)cc1)c1ncnc(-c2ccccc2)n1        23.61%
17  COC(=O)C(NC(=O)c1cc(C)n(-c2ccccc2)n1)c1cccs1 (stereo not drawn)         4.63%
18  COc1cc(OC)cc(-c2nc([C@H](OC)c3ccc(Br)cc3)no2)c1        47.56%
19   COc1ccc(Cc2noc(-c3oc(CC4CC4)nc3C)n2)cc1        15.76%
20  CCOC(=O)C1CN(C(=O)c2cc(C)n(-c3cccc(C(F)(F)F)c3)n2)CC12CC2 (stereo not drawn)        83.57%
21  CCc1nc(C(=O)NC(c2ccccc2)c2cccnc2)nn1-c1ccccc1Cl (stereo not drawn)        16.02%
22  O=C(OCC1CSc2ccccc2O1)c1ccc(Cn2cccc2)cc1 (stereo not drawn)        18.40%
23  O=C1CN(C(=O)c2cc3cc(Br)ccc3o2)CN1Cc1ccccc1        22.64%
24  Brc1cc2c(cc1Cc1noc(-c3cnn(CC4CC4)c3)n1)OCO2        80.66%
25  Cc1c(C(=O)OCC2CSc3ccccc3O2)cnn1Cc1ccccc1 (stereo not drawn)        80.92%
26  Cc1c(C(=O)OCC2CSc3ccccc3O2)nnn1Cc1ccc(F)cc1 (stereo not drawn)        64.39%
27  CC1(C)CN(C(=O)c2cn(-c3cccc(C(F)(F)F)c3)nn2)C1c1cccs1 (stereo not drawn)        52.38%
28  COc1cc(C(=O)OCC2CCCN2c2ccc(C)nn2)ccc1Cl (stereo not drawn)        17.38%
29  C[C@@H](COC(=O)c1nn(C)c(=O)c2ccccc12)Oc1ccc(Cl)cc1        28.77%
30  CN(C)c1cc(-c2nc(Cc3ccc4c(c3)OCCO4)no2)c2ccccc2n1        44.88%
31  CCOC(=O)C(NC(=O)c1cc(C)n(-c2cccc(F)c2)n1)C1CCOCC1 (stereo not drawn)        -2.51%
32  COC(=O)C(NC(=O)c1cc(-c2cccc(F)c2)c2ccccc2c1)c1cccs1 (stereo not drawn)         8.92%
33  CCOC(=O)C1(NC(=O)c2cc(C)n(-c3cccc(Cl)c3)n2)CCCCC1        31.60%
34  COC(=O)CC(NC(=O)c1cc(C)n(-c2ccc(OC)cc2)n1)c1cccs1 (stereo not drawn)         7.24%
35  Cc1c(C(=O)OCC2CSc3ccccc3O2)cnn1Cc1ccc2ccccc2c1 (stereo not drawn)        50.03%

---

Overview of reported Gi1 hCB1 response across a group of compounds:
biological target: hCB1 (Homo sapiens, UniProt P21554); assay: bioSensAll ebBRET signaling profiling, hCB1; format: cell-based; set-up: host or cells: HEK293SL cells, transient PEI transfection; conditions: Gi1 biosensor; Log [Compound] (M) -10.0969
measurement.label: Gi1 hCB1 response

In [3]: df
Out[3]:
                                   compound  result_value
0  COc1cccc(C(NC(=O)c2cc(C)n(-c3cccc(C(F)(F)F)c3)n2)c2ccco2)c1 (stereo not shown)      -14.3804
1  Cc1cc(C(=O)N2CC3(CCC3)[C@@H]2[C@H]2CCCO2)nn1-c1cccc(C(F)(F)F)c1 (single isomer, unassigned)        -2.115
2  COC(=O)C(NC(=O)c1cc(C)n(-c2cccc(C(F)(F)F)c2)n1)c1cccs1 (stereo not shown)         3.838
3  CC(=O)C(c1cccs1)N(C)C(=O)c1cc(C)n(-c2cccc(C(F)(F)F)c2)n1 (stereo not shown)        -4.958

---

target: hCB1 (Homo sapiens, UniProt P21554); test: bioSensAll ebBRET signaling profiling, hCB1; type: cell-based; set-up: host or cells: HEK293SL cells, transient PEI transfection; conditions: Log [Compound] (M) -4.63927; single replicate values, FigS6a
Given measured GoB hCB1, output Y if it is greater than or equal to 10 and N if not.

>>> df
                                    compound  discrete_label
 0  COc1cccc(C(NC(=O)c2cc(C)n(-c3cccc(C(F)(F)F)c3)n2)c2ccco2)c1 (stereo not shown) [‘1087]               N
 1  Cc1cc(C(=O)NC(c2ccccc2)c2ccco2)nn1-c1cccc(C#N)c1 (stereo not shown) [‘12565]               Y
 2  COC(=O)[C@@H]1[C@@H]2CCC[C@@H]2CN1C(=O)c1cc(C)n(-c2cccc(Cl)c2)n1 (racemic) [‘10010]               Y
 3  Cc1cc(C(=O)N2CC3(CCC3)[C@H]2[C@@H]2CCCO2)nn1-c1cccc(C(F)(F)F)c1 [‘5490]               Y
 4  Cc1c(C(=O)OCC2CSc3ccccc3O2)cnn1Cc1ccccc1 (stereo not shown) [‘7800]               Y
 5  Cn1nc(-c2nnc(C(C)(C)Oc3ccc(Cl)cc3)o2)c2ccccc2c1=O [‘0450]               Y
 6  Cc1cc(C(=O)NC(c2ccccc2)c2ccco2)nn1-c1cccc(C(F)(F)F)c1 (stereo not shown) [‘1081]               Y
 7  Cn1nc(-c2nnc(C(C)(C)Oc3ccc(C(F)(F)F)cc3)o2)c2ccccc2c1=O [‘2153]               Y
 8  Cc1cc(C(=O)N2CC3(CCC3)[C@@H]2[C@H]2CCCO2)nn1-c1cccc(C(F)(F)F)c1 (single isomer, unassigned) [compound 430]               N
 9  Cc1cc(C(=O)N(C)C(c2ccco2)c2ccco2)nn1-c1cccc(C(F)(F)F)c1 [‘4388]               N
10  Cc1cc(C(=O)N2CC3(CCC3)[C@H]2[C@H]2CCCO2)nn1-c1cccc(C(F)(F)F)c1 [‘1651]               Y
11  COC(=O)[C@@H]1[C@@H]2CC[C@@H]2CN1C(=O)c1cc(C)n(-c2cccc(C(F)(F)F)c2)n1 [‘6448]               Y
12  Cc1nn(Cc2ccc(Cl)cc2)c(C)c1C(=O)OCC1CSc2ccccc2O1 (stereo not shown) [‘5463]               Y
